FYI, the data here is from patent US20240182536A1.

Target: T1, IL-18 receptor (IL-18Rα and IL-18Rβ) (UniProt Q13478 19-541; O95256 20-599, limits assumed)
T1 sequence (looked up) 1: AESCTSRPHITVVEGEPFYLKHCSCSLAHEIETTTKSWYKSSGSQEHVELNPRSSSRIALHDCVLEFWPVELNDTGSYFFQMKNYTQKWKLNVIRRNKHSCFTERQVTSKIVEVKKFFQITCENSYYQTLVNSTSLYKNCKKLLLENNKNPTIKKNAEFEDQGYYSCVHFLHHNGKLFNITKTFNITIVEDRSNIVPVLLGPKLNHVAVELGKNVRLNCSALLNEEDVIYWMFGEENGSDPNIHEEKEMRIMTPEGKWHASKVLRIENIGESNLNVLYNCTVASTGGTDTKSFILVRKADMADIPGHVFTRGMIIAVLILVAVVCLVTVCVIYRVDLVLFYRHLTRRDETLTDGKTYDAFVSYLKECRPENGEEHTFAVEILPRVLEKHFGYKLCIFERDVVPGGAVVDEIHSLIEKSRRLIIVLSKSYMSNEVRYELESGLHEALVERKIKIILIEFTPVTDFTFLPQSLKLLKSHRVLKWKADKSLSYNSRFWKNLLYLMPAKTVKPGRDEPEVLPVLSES
T1 sequence (looked up) 2: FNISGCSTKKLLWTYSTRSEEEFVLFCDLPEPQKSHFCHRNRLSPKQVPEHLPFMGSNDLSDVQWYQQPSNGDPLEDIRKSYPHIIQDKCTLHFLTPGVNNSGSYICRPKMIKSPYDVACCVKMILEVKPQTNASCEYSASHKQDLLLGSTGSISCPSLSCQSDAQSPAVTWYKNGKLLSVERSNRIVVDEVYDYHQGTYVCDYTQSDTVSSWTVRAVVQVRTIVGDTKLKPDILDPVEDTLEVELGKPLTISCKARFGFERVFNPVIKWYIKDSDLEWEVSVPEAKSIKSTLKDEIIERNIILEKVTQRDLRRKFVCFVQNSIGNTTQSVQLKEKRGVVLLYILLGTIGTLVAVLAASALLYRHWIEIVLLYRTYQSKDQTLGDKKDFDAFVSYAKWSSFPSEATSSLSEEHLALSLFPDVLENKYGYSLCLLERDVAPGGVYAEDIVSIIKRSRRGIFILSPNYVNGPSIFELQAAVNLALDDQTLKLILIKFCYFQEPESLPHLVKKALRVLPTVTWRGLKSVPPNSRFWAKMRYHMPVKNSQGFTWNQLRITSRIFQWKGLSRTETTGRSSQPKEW
Assay: cell-based or functional assay
METRIC: EC50 (pM), PBMC IFN gamma assay, run 1
I'd appreciate it if you wrote the number followed by its unit.

BINDER	EC50 (pM), PBMC IFN gamma assay, run 1
hIL18 (G3V, K53S, M60K) - KiH (Fc fusion) YFVKLESKLSVIRNLNDQVLFIDQGNRPLFEDMTDSDMRDNAPRTIFIISMYSDSQPRGKAVTISVKSEKISTLSSENKIISFKEMNPPDNIKDTKSDIIFFQRSVPGHDNKMQFESSSYEGYFLASEKERDLFKLILKKEDELGDRSIMFTVQNED	589 pM
hIL18 (G3V, E6K, K53S, M60K) - KiH (Fc fusion) YFVKLKSKLSVIRNLNDQVLFIDQGNRPLFEDMTDSDMRDNAPRTIFIISMYSDSQPRGKAVTISVKSEKISTLSSENKIISFKEMNPPDNIKDTKSDIIFFQRSVPGHDNKMQFESSSYEGYFLASEKERDLFKLILKKEDELGDRSIMFTVQNED	17.8 pM
hIL18 (G3V, K53A, M60K) - KiH (Fc fusion) YFVKLESKLSVIRNLNDQVLFIDQGNRPLFEDMTDSDMRDNAPRTIFIISMYADSQPRGKAVTISVKSEKISTLSSENKIISFKEMNPPDNIKDTKSDIIFFQRSVPGHDNKMQFESSSYEGYFLASEKERDLFKLILKKEDELGDRSIMFTVQNED	47.3 pM
hIL18 (G3V, E6K, K53A, M60K)- KiH (Fc fusion) YFVKLKSKLSVIRNLNDQVLFIDQGNRPLFEDMTDSDMRDNAPRTIFIISMYADSQPRGKAVTISVKSEKISTLSSENKIISFKEMNPPDNIKDTKSDIIFFQRSVPGHDNKMQFESSSYEGYFLASEKERDLFKLILKKEDELGDRSIMFTVQNED	8.83 pM

Suppose we examine the binder hIL18 (G3T, K53S, M60K) - KiH (Fc fusion) YFTKLESKLSVIRNLNDQVLFIDQGNRPLFEDMTDSDMRDNAPRTIFIISMYSDSQPRGKAVTISVKSEKISTLSSENKIISFKEMNPPDNIKDTKSDIIFFQRSVPGHDNKMQFESSSYEGYFLASEKERDLFKLILKKEDELGDRSIMFTVQNED ; what EC50 (pM), PBMC IFN gamma assay, run 1 value has been reported?
810 pM
